Listing: WC ELISA of selected sequences
SYSTEM_NAME: 3T3 cells that over-express human cMet (Homo sapiens, UniProt P08581)
Construct: expressed in transfected cells; host or cells: 3T3 cells
Sequence (P08581 25-1390): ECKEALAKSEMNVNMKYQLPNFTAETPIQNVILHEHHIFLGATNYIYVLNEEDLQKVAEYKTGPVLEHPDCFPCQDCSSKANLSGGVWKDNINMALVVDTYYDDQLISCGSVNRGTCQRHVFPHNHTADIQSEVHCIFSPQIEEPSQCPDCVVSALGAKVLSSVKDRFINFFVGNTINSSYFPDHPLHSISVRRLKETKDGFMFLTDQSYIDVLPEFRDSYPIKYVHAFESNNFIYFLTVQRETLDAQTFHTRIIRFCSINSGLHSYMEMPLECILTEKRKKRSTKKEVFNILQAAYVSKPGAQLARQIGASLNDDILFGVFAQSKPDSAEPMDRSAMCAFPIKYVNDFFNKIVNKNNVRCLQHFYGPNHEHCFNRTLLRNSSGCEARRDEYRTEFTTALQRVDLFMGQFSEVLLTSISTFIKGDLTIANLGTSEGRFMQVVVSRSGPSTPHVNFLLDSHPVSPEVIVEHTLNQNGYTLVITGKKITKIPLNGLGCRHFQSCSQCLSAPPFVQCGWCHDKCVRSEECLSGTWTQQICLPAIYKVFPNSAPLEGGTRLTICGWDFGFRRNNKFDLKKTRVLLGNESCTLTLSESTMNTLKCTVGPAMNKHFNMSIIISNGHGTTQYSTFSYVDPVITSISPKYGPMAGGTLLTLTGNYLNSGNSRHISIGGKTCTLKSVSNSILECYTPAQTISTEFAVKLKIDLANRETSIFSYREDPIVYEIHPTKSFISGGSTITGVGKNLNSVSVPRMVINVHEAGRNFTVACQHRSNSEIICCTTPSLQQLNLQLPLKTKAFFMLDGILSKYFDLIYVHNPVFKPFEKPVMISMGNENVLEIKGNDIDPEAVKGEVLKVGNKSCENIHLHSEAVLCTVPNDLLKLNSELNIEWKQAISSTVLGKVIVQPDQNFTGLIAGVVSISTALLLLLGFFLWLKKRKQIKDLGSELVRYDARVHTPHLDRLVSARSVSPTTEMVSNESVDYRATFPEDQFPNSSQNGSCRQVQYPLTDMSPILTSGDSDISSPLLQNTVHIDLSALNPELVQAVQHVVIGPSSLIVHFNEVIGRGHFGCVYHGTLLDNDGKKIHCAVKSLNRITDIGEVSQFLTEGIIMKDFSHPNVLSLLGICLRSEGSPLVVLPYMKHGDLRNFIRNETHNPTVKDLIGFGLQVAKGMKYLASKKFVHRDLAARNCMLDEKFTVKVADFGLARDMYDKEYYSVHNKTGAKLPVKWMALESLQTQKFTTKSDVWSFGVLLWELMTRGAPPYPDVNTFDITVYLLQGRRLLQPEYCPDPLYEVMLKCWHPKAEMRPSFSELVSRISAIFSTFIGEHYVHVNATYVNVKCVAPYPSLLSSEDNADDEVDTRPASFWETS
ASSAY_NAME: Whole cell ELISA of peptide-displaying phage
Assay type: cell-based
MEASUREMENT_CONTEXT: phage isolate; 3T3 cells expressing human cMet vs. non-expressing 3T3 cells
Kindly provide the numeric value in fold over background only, without the unit symbol.

SEQ: AGPLFCFEWPSLCHWGGT (Synthetically generated cMet-binding peptide sequence) [SEQ ID NO: 033]
SYSTEM_NAME: 3T3 cells that over-express human cMet (Homo sapiens, UniProt P08581)
WC ELISA [fold over background]: 1.43
--
SEQ: GSTKVCHEKWNQLFCHNQAP (Synthetically generated cMet-binding peptide sequence) [SEQ ID NO: 368]
SYSTEM_NAME: 3T3 cells that over-express human cMet (Homo sapiens, UniProt P08581)
WC ELISA [fold over background]: 1.27
--
SEQ: AGKQWCVVWEETCDQLGT (Synthetically generated cMet-binding peptide sequence) [SEQ ID NO: 039]
SYSTEM_NAME: 3T3 cells that over-express human cMet (Homo sapiens, UniProt P08581)
WC ELISA [fold over background]: 1.33

Input: Reported WC ELISA, sequence AGWFECEFGFWGCNWLGT (Synthetically generated cMet-binding peptide sequence) [SEQ ID NO: 018] : ____
Output: 1.13

Input: Consider the sequence shown here: AGIWFCNNEEKSCWAYGT (Synthetically generated cMet-binding peptide sequence) [SEQ ID NO: 040] What is its recorded WC ELISA?
Output: 1.37

Input: What value of WC ELISA has been recorded for this entry: AGQFYCSGPPTFQCIMIGT (Synthetically generated cMet-binding peptide sequence) [SEQ ID NO: 089]
Output: 1.23

Input: // lookup WC ELISA for AGTIRCNLAMMVCMFEGT (Synthetically generated cMet-binding peptide sequence) [SEQ ID NO: 028]
Output: 1.43

###

SYSTEM_NAME: cMet-Fc fusion protein (Homo sapiens)
Sequence (P08581 25-307 limits assumed): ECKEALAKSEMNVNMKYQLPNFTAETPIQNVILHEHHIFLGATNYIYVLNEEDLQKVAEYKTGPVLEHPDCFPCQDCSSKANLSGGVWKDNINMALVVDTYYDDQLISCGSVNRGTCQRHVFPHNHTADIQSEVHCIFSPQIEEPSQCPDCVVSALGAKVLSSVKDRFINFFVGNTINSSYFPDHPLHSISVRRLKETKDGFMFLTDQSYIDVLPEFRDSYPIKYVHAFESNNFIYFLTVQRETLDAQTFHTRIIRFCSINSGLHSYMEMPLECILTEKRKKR
Sequence (P08581 with tags, fused parts or gaps limits assumed): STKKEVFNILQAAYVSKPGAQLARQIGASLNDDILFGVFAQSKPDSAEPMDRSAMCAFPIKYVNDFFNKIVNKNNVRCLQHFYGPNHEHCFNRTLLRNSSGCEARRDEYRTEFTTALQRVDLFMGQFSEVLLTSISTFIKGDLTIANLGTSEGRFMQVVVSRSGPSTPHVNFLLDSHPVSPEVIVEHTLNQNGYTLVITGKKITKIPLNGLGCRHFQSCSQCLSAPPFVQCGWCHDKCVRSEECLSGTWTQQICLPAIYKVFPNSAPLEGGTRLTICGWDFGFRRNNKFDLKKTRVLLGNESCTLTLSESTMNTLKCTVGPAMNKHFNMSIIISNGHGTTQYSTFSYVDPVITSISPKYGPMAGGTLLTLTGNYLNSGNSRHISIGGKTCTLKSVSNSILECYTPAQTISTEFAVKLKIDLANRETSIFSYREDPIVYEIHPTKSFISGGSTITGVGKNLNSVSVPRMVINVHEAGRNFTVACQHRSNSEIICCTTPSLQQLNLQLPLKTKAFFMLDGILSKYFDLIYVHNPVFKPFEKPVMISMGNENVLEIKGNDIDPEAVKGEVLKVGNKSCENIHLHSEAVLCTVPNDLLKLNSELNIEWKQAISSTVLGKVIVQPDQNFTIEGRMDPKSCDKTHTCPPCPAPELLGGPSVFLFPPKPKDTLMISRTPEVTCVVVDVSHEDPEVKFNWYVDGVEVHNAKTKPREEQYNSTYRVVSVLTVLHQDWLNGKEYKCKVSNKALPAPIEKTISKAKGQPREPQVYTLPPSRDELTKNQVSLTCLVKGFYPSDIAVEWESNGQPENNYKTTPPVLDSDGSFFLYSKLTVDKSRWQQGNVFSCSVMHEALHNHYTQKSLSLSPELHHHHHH
ASSAY_NAME: Protein phage ELISA: peptide-displaying phage binding to soluble cMet-Fc versus TRAIL-Fc
MEASUREMENT_CONTEXT: phage isolate; cMet-Fc vs. TRAIL-Fc
// values below are reported Protein ELISA
Numeric answer only, unit fold over background assumed.

Here's what some known entries look like.
SEQ: AQGIAWQLEWSYMPQSPPSFDR (Synthetically generated cMet-binding peptide sequence) [SEQ ID NO: 495]
Protein ELISA [fold over background]: 4.5

SEQ: AGYWSCAGPPMFMCTWQGT (Synthetically generated cMet-binding peptide sequence) [SEQ ID NO: 079]
Protein ELISA [fold over background]: 10.7

Now, please, on to the next sequence.
Input: Quick one: Protein ELISA for AGGNWCSFYEELCEWLGT (Synthetically generated cMet-binding peptide sequence) [SEQ ID NO: 043] ?
Output: 4.2

###

SYSTEM_NAME: 3T3 cells that over-express human cMet (Homo sapiens, UniProt P08581)
Construct: expressed in transfected cells; host or cells: 3T3 cells
ASSAY_NAME: Whole cell ELISA of peptide-displaying phage
Type: cell-based
MEASUREMENT_CONTEXT: phage isolate; 3T3 cells expressing human cMet vs. non-expressing 3T3 cells
Below, each entry is listed with its recorded WC ELISA.
Give the value, in units of fold over background, as a plain number.

SEQ: AQKTWFLEADLFQMFQEVTWQF (Synthetically generated cMet-binding peptide sequence) [SEQ ID NO: 490]
SYSTEM_NAME: 3T3 cells that over-express human cMet (Homo sapiens, UniProt P08581)
UNITS: fold over background
WC ELISA: 1.40

SEQ: AGDWHCQGPPAFMCWMIGT (Synthetically generated cMet-binding peptide sequence) [SEQ ID NO: 065]
SYSTEM_NAME: 3T3 cells that over-express human cMet (Homo sapiens, UniProt P08581)
UNITS: fold over background
WC ELISA: 1.30

SEQ: GSFTACNKTSTTRQPCNPYAP (Synthetically generated cMet-binding peptide sequence) [SEQ ID NO: 384]
SYSTEM_NAME: 3T3 cells that over-express human cMet (Homo sapiens, UniProt P08581)
UNITS: fold over background
WC ELISA: 1.37

Input: Which value of WC ELISA has been reported for AGHFECPKHQYMCDMPGT (Synthetically generated cMet-binding peptide sequence) [SEQ ID NO: 042] in the records?
Output: 1.23

Input: Fill blank: measured WC ELISA of the sequence AGETKCSGPPYFYCWMEGT (Synthetically generated cMet-binding peptide sequence) [SEQ ID NO: 093] is ____.
Output: 1.23

Input: Consider the sequence AQWNWDMGFMWTTDSAQVQPSM (Synthetically generated cMet-binding peptide sequence) [SEQ ID NO: 489] and give its measured WC ELISA.
Output: 1.37

Input: Fill blank: measured WC ELISA of the sequence AQHGYLSPLKQYQMSHVEFWTY (Synthetically generated cMet-binding peptide sequence) [SEQ ID NO: 476] is ____.
Output: 1.17

Input: Requested read-out: WC ELISA. Entry: AGETVCYWLNGWFCVDDGT (Synthetically generated cMet-binding peptide sequence) [SEQ ID NO: 073]
Output: 1.10
